# assaySystem: D(2) dopamine receptor (Rattus norvegicus, UniProt P61169)
# Sequence (P61169 whole entry): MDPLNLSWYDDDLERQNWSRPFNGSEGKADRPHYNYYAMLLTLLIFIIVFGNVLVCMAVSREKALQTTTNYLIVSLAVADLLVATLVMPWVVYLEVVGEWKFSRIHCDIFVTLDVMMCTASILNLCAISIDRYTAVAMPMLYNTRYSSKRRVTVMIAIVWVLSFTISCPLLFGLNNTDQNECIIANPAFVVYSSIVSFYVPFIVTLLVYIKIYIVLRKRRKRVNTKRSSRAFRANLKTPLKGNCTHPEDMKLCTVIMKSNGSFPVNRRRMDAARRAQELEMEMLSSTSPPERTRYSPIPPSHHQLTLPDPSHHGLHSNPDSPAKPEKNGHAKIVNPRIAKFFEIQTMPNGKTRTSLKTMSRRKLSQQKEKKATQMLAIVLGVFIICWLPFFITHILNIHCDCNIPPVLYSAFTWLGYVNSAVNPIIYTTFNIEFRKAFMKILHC
# protocolDetails: Ability to displace [3H]sulpiride from dopamine receptor D2 in rat brain
# Type: tissue-based
assayReadout: pKi
Please report pKi as the negative decimal logarithm of the molar concentration, giving only the number.

Examples with answers:
C[C@@H](CN1CCCC1)N(C)CCc1ccc(Cl)c(Cl)c1 : 4.95
CN(CCN1CCCC1)Cc1ccc(Cl)c(Cl)c1 : 5.89

stdin: What value of pKi has been reported for the following compound? CN(CCc1cccc(Cl)c1)CCN1CCCC1
stdout: 5.19

stdin: Now consider CN(CCc1ccc(Cl)c(Cl)c1)CCN1CCCCCC1 and answer again.
stdout: 5.17

stdin: Now consider CN(CCc1ccc(Cl)c(Cl)c1)CCN1CCCCC1 and answer again.
stdout: 5.92

stdin: Now consider CCN(CC)CCN(C)CCc1ccc(Cl)c(Cl)c1 and answer again.
stdout: 5.52

stdin: Now consider CN(CCc1ccc(Cl)c(Cl)c1)CCN1CCCC1 and answer again.
stdout: 5.95

stdin: Now consider CCN(CCc1ccc(Cl)c(Cl)c1)CCN1CCCC1 and answer again.
stdout: 5.78
